B1: TRIM55 (parent)
chain: FQMEKIEHGYENMNHFTVNLNREE

Variants of: B1
Experiment: protein stability index of a GFP-peptide fusion (GPS, HEK-293T) (PSI 1-6); higher = more stable;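 further: lentivirally expressed fusions sorted by FACS into six bins by GFP to DsRed ratio, PSI derived from sequencing read proportions per bin multiplied by bin number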
Conditions: c terminus: a fixed tail appended
Measurement Label: protein stability index
Give your answer as a number; write no unit.

Please give the measured protein stability index for this variant: `Y10M`
3.31

Please report the recorded protein stability index for `N12Q` .
2.51

Tell me the measured protein stability index of `H8F` , please.
2.09

So what's the measured protein stability index for this one? `E23D`
3.09

Which measured protein stability index value corresponds to `Q2M` ?
3.42

Which protein stability index is reported for this variant? `L20F`
2.71

Could you tell me which protein stability index is on file for `K5M` ?
2.83

Sample `I6C` — what was its protein stability index?
2.64

Can you look up the measured protein stability index of `F1Q` for me?
4.85

Value lookup for protein stability index; key = `M3C`
2.83

Fill in: protein stability index of `K5R` is ___
2.68

GET /values?readout=protein stability index&item= `N19P`
3.4

Would you mind telling me what protein stability index value was observed for `M13W` ?
2.12

Item under review: `R22N` . Reported protein stability index?
3.57

Return reported protein stability index; argument: `L20T`
2.7

// query protein stability index value for entry `H15W`
1.98

Looking for the measured protein stability index of `R22K` , can you help?
3.75

Item under review: `Q2W` . Reported protein stability index?
2.62

Quick check: protein stability index of `E23C` ?
1.67

Item `M13Q` has what recorded protein stability index?
3.33

Data request, read-out protein stability index, for `Q2T`
3.35

Tell me the measured protein stability index of `M13R` , please.
2.68
